Test system: DeltatarO mutant
Experiment: S. aureus survival, RN4220 and DeltatarO strains – OD600, teichoic acid synthesis inhibitors, primary screen (AID 463173)
Conditions: S. aureus RN4220 wild type/DeltatarO growth, OD600, 18 h, hits give low values, screened at 18.75 µg/mL (by protocol)
Hit rate of the full screen: of about 52,000 compounds, about 4,300 (8.3%) were called active. Many of the other results were omitted from the sample, so actives are more common in it than they were.
Assignment: determine reported survival for the given compounds.
One number for each entry, in %.

Quick batch: survival for everything below.
1. O=C(NCCN1CCCCC1)Nc1c[nH]c2c(Cl)cccc2c1=O
2. COc1ccc(CNC(=O)Cc2ccc(NC(=O)N3CCSc4ncccc43)cc2)cc1
3. CCCCn1cc2c(c1-c1ccccc1Br)c(=O)n(C)c(=O)n2C
4. O=C(NCn1nc(-c2ccccc2)nc1-c1ccccc1)c1cccnc1
5. Cc1cccc(NC(=O)C(Cc2ccccc2)n2cccc2)c1C (stereo unspecified)
6. Cn1c(=O)c2c(-c3ccc(Cl)cc3)n(CCc3ccccc3)cc2n(C)c1=O
7. CCCCn1cc2c(c1-c1ccc(Br)cc1)c(=O)n(C)c(=O)n2C

// result
1. 102
2. 95
3. 76
4. 67
5. 75
6. 93
7. 58

Quick batch: survival for everything below.
1. Cn1c(=O)c2c(-c3ccccc3Cl)n(Cc3ccc(Cl)cc3)cc2n(C)c1=O
2. CCc1ccc(OCc2nc(-c3ccc(-n4cccc4)cc3)no2)cc1
3. CC(=O)c1cccc(NC(=O)[C@H](Cc2ccccc2)N2Cc3ccccc3C2=O)c1
4. COc1ccc(NC(=O)C(Cc2ccccc2)n2cccc2)cc1OC (stereo unspecified)

// result
1. 60
2. 82
3. 67
4. 79

Data origin, for the record: PubChem BioAssay AID463173
